# SYSTEM_NAME: PCSK9 (Homo sapiens, UniProt Q8NBP7)
# Sequence (Q8NBP7 153-692): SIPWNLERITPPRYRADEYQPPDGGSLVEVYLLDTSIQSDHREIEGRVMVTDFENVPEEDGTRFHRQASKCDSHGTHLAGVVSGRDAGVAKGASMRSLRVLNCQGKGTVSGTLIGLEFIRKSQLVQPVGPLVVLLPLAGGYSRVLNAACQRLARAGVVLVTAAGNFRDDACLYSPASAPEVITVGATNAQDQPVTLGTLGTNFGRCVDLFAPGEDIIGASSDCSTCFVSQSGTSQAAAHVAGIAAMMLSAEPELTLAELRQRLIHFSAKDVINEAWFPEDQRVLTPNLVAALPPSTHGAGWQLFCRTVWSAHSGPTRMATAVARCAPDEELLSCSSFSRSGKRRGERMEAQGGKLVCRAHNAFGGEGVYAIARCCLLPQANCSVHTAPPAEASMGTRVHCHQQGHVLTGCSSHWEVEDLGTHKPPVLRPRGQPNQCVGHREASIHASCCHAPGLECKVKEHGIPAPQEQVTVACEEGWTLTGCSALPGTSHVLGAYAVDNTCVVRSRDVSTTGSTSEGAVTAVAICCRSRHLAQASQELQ
# TEST: BODIPY-LDL uptake assay in HepG2 cells
# Assay type: cell-based
# MEASUREMENT_SETUP: 30 μM test compound, 5 μg/ml PCSK9, BODIPY-LDL
QUANTITY_KIND: % increase in LDL Uptake (%)
Numbers only, in %.

{"MOLECULE": "O=C(c1cccc(C2(O)COC2)c1)N1CCC(c2ccc(C(F)F)cc2)CC1", "SCALE_UNIT": "%", "% increase in LDL Uptake": 159}
{"MOLECULE": "O=C(c1ccc(C2(O)COC2)cc1)N1CCC(c2ccccc2)CC1", "SCALE_UNIT": "%", "% increase in LDL Uptake": 6}
{"MOLECULE": "CC#CCOC1(c2ccc(C(=O)N3CCC(c4ccc(C(F)(F)F)cc4)CC3)cc2)COC1", "SCALE_UNIT": "%", "% increase in LDL Uptake": 14}
{"MOLECULE": "O=C(c1ccc(C2(O)CS(=O)(=O)C2)cc1)N1CC2CN(c3ccc(C(F)(F)F)cc3)CC2C1 (stereo not shown)", "SCALE_UNIT": "%", "% increase in LDL Uptake": 37}
{"MOLECULE": "O=C(c1ccc(C2(O)COC2)cc1)N1CCC2(CCN(c3ccc(C(F)(F)F)cc3)CC2)C1", "SCALE_UNIT": "%", "% increase in LDL Uptake": 31}
{"MOLECULE": "CC(C)COC1(c2ccc(C(=O)N3CCC(c4ccc(C(F)(F)F)cc4)CC3)cc2)COC1", "SCALE_UNIT": "%", "% increase in LDL Uptake": 4}
{"MOLECULE": "CC(C)(C)OC(=O)N1CCC(O)(c2ccc(C(=O)N3CCC(c4ccc(C(F)(F)F)cc4)CC3)cc2)C1 (stereo not shown)", "SCALE_UNIT": "%", "% increase in LDL Uptake": 0}
{"MOLECULE": "O=C(c1ccc(C2(O)COC2)cc1)N1CC2CC(c3ccc(C(F)(F)F)cc3)CC2C1 (stereo not shown)", "SCALE_UNIT": "%", "% increase in LDL Uptake": 347}

Hi! Can you tell me % increase in LDL Uptake for each of these molecules?
1. O=C(c1ccc(C2(O)COC2)cc1)N1CCC(c2ccc(OC(F)(F)F)cc2)CC1
2. O=C(c1cccc(C2(O)COC2)c1)N1CCC(c2ccc(C(F)(F)F)c(F)c2)CC1

A)
[14, 18]

----------
# SYSTEM_NAME: PCSK9 (Homo sapiens)
# TEST: BODIPY-LDL uptake assay in HepG2 cells
# Format: cell-based
# MEASUREMENT_SETUP: 10 μM test compound, 5 μg/ml PCSK9, BODIPY-LDL
QUANTITY_KIND: % increase in LDL Uptake (%)
One number for each entry, in %.

Recorded results for 2 compounds are shown here.
{"COMPOUND": "CC(C)COC1(c2ccc(C(=O)N3CCC(c4ccc(C(F)(F)F)cc4)CC3)cc2)COC1", "% increase in LDL Uptake [%]": 9}
{"COMPOUND": "O=C(c1ccc(C2(O)CCNCC2)cc1)N1CCC(c2ccc(C(F)(F)F)cc2)CC1", "% increase in LDL Uptake [%]": 0}

Q) What value of measured % increase in LDL Uptake is listed for CCOC1(c2ccc(C(=O)N3CC4CN(c5ccc(C(F)(F)F)cc5)CC4C3)cc2)CSC1 (stereo not drawn) ?
A) 5

----------
# SYSTEM_NAME: PCSK9 (Homo sapiens)
# TEST: BODIPY-LDL uptake assay in HepG2 cells
# Format: cell-based
# MEASUREMENT_SETUP: 30 μM test compound, 5 μg/ml PCSK9, BODIPY-LDL
QUANTITY_KIND: % increase in LDL Uptake (%)
Numbers only, in %.

{"COMPOUND": "O=C(c1ccc(C2(O)CNC2)cc1)N1CCC(c2ccc(C(F)(F)F)cc2)CC1", "SCALE_UNIT": "%", "% increase in LDL Uptake": 58}
{"COMPOUND": "O=C(c1cccc(C2(O)COC2)c1)N1CCC(c2ccccc2C(F)(F)F)CC1", "SCALE_UNIT": "%", "% increase in LDL Uptake": 12}

Hi! Can you tell me % increase in LDL Uptake for each of these compounds?
1. COC1(c2ccc(C(=O)N3CCCN(c4ccc(C(F)(F)F)cc4)CC3)cc2)COC1
2. O=C(c1cccc(C2(O)COC2)c1)N1CC2CN(c3ccc(C(F)(F)F)cc3)CC2C1 (stereo not drawn)
3. O=C(c1ccc(C2(O)COC2)cc1)N1Cc2cn(-c3ccc(C(F)(F)F)cc3)cc2C1
4. CC(C)OC1(c2ccc(C(=O)N3CCC(c4ccc(C(F)(F)F)cc4)CC3)cc2)COC1
5. COC1(c2ccc(C(=O)N3CC4CN(c5ccc(C(F)(F)F)cc5)CC4C3)cc2)CSC1 (stereo not drawn)
6. CCSCCOC1(c2ccc(C(=O)N3CCC(c4ccc(C(F)(F)F)cc4)CC3)cc2)COC1
7. O=C(c1ccc(C2(O)COC2)cc1)N1CCC(c2ccc(C(F)(F)F)cc2)C1 (stereo not drawn)
8. COC(=O)c1ccc(C2(O)CC3CN(C(=O)c4ccc(C5(O)COC5)cc4)CC3C2)cc1 (stereo not drawn)

A)
1: 109; 2: 287; 3: 144; 4: 77; 5: 9; 6: 19; 7: 25; 8: 3

----------
# SYSTEM_NAME: PCSK9 (Homo sapiens)
# TEST: BODIPY-LDL uptake assay in HepG2 cells
# Assay type: cell-based
# MEASUREMENT_SETUP: 30 μM test compound, 5 μg/ml PCSK9, BODIPY-LDL
For each of the molecules below, state its % increase in LDL Uptake.
Give bare numbers, in %.

Recorded results for 4 molecules are shown here.
{"COMPOUND_STRUCTURE": "O=C(c1ccc(C2(O)COC2)cc1)N1CCc2cc(-c3ccc(C(F)(F)F)cc3)ccc21", "SCALE_UNIT": "%", "% increase in LDL Uptake": 0}
{"COMPOUND_STRUCTURE": "COC1(c2ccc(C(=O)N3CCC(c4ccc(C(F)(F)F)cc4)CC3)cc2)CCNCC1", "SCALE_UNIT": "%", "% increase in LDL Uptake": 77}
{"COMPOUND_STRUCTURE": "Cn1nc(-c2ccc(C(F)(F)F)cc2)c2c1CN(C(=O)c1ccc(C3(O)COC3)cc1)C2", "SCALE_UNIT": "%", "% increase in LDL Uptake": 18}
{"COMPOUND_STRUCTURE": "O=C(c1ccc(C2(O)COC2)cc1)N1CCC(c2ccccc2C(F)(F)F)CC1", "SCALE_UNIT": "%", "% increase in LDL Uptake": 69}

Shift focus to the following entry.
Q) What value of measured % increase in LDL Uptake is listed for CCOC1(c2ccc(C(=O)N3CCC(c4ccc(C(F)(F)F)cc4)CC3)cc2)COC1 ?
A) 5
